Origin of measurements: patent US4049898A

# experimental-protocol: physchem
# cond: water, pH 2, water
endpoint-label: solubility

State its solubility for this molecule: C[C@@H]1[C@H](O)[C@@H](C)/C=C/C=C/C=C/C=C/C=C/C=C/C=C/[C@H](O[C@@H]2O[C@H](C)[C@@H](O)[C@H](N)[C@@H]2O)C[C@@H]2O[C@](O)(C[C@@H](O)C[C@@H](O)[C@H](O)CC[C@@H](O)C[C@@H](O)CC(=O)O[C@H]1C)C[C@H](O)[C@H]2C(=O)O
< 1000 µg/mL
